- study_target: NDM-1 (Klebsiella pneumoniae, UniProt C7C422)
- Sequence (C7C422 whole entry, looked up, species assumed): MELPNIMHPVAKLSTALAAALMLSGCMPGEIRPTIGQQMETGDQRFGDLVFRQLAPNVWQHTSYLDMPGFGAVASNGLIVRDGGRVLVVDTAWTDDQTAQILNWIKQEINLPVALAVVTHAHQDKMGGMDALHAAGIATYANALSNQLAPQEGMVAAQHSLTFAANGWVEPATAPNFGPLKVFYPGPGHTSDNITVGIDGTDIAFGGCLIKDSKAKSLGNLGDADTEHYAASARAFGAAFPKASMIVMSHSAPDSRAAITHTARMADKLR
- method_summary: biochemical
- Assay type: biochemical
- protocol_conditions: NDM-1 enzyme, CCF2-FA substrate; read-out: NDM-1 IC50
Each entry below lists one item and its recorded IC50 value.
Give the value, in units of nM, as a plain number.

Known IC50 results, listed for orientation:
NS(=O)(=O)c1c(C(F)(F)F)ccc(N2C[C@H](O)C[C@@H](O)C2)c1-c1nnn[nH]1 [Example 666] :: 57
NS(=O)(=O)c1c(C(F)(F)F)ccc([C@H]2CC[C@H](NC3CCNC3)CC2)c1-c1nnn[nH]1 (stereo partly shown) [Example 696] :: 1.09
CC1(O)CN(c2ccc(-c3cccc(S(N)(=O)=O)c3-c3nnn[nH]3)cn2)C1 [Example 635] :: 4.92
NS(=O)(=O)c1cccc(-c2ccc(NC3CCNC3)nc2)c1-c1nnn[nH]1 (stereo not shown) [Example 628] :: 45
NS(=O)(=O)c1c(C(F)(F)F)ccc(-c2ccc(N3CCC(O)CC3)cc2)c1-c1nnn[nH]1 [Example 740] :: 0.229
NS(=O)(=O)c1c(C(F)(F)F)ccc(-c2ccc(C3CCN(CC4CCNCC4)CC3)cc2)c1-c1nnn[nH]1 [Example 668] :: 9.32

Please turn your attention to the following entry.
Annotate the compound NS(=O)(=O)c1c(C(F)(F)F)ccc([C@H]2CC[C@H](O)CC2)c1-c1nnn[nH]1 [Example 496] with its measured IC50.
0.506

###

- study_target: VIM-1 (Pseudomonas aeruginosa (strain ATCC 15692 / DSM 22644 / CIP 104116 / JCM 14847 / LMG 12228 / 1C / PRS 101 / PAO1), UniProt A0A0F7KYQ8)
- method_summary: Enzyme activity: determination of IC50, fluorescence assay with CCF2-FA substrate (VIM-1)
- Format: biochemical
- protocol_conditions: VIM-1 IC50, VIM-1 enzyme, CCF2-FA substrate
measured_quantity: pIC50
Please note pIC50 is a logarithmic value: minus log10 of concentration in mol/L. Answer with that number alone.

Known pIC50 results, listed for orientation:
NS(=O)(=O)c1c(C(F)(F)F)ccc(-c2ccc(C3CCN(C[C@@H]4CCCN4)CC3)cc2)c1-c1nnn[nH]1 [Example 669] :: 8.05
NS(=O)(=O)c1cccc(-c2ccc(C3CCN(C[C@H]4CNCCO4)CC3)cc2)c1-c1nnn[nH]1 [Example 619] :: 6.41
NS(=O)(=O)c1c(CC[C@H]2CC[C@H](N)CC2)ccc(-c2ccc(C3CNC3)cc2)c1-c1nnn[nH]1 [Example 599] :: 8.27
NS(=O)(=O)c1cccc(-c2ccc(N3CCC3CO)nc2)c1-c1nnn[nH]1 (stereo in doubt) [Example 636] :: 7.05
NC1CCC(N[C@H]2CC[C@H](c3ccc(C(F)(F)F)c(S(N)(=O)=O)c3-c3nnn[nH]3)CC2)C1 (stereo partly shown) [Example 703] :: 8.08

Annotate the compound NS(=O)(=O)c1c(C(F)(F)F)ccc(-c2ccc(C3CCN(C[C@H]4CCCN4)CC3)cc2)c1-c1nnn[nH]1 [Example 675] with its measured pIC50.
7.83

Annotate the compound NS(=O)(=O)c1c(C(F)(F)F)ccc(-c2cccc3cnccc23)c1-c1nn[nH]n1 [Example 515] with its measured pIC50.
9.51

Annotate the compound NCCN[C@H]1CC[C@H](c2ccc(C(F)(F)F)c(S(N)(=O)=O)c2-c2nnn[nH]2)CC1 [Example 700] with its measured pIC50.
9.02

Annotate the compound NC[C@H]1CC[C@H](Cc2ccc(-c3ccc(N)nc3)c(-c3nnn[nH]3)c2S(N)(=O)=O)CC1 [Example 579] with its measured pIC50.
8.51

Annotate the compound CNCCN(C)c1ccc(-c2cccc(S(N)(=O)=O)c2-c2nnn[nH]2)cn1 [Example 637] with its measured pIC50.
6.34

Annotate the compound NC[C@H]1CC[C@@H](Cc2ccc(-c3ccc(N)nc3)c(-c3nnn[nH]3)c2S(N)(=O)=O)CC1 [Example 580] with its measured pIC50.
7.87

Annotate the compound Nc1ncc(C#Cc2ccc(C(F)(F)F)c(S(N)(=O)=O)c2-c2nn[nH]n2)cc1CO [Example 507] with its measured pIC50.
8.49

Annotate the compound NC1(c2ccc(-c3ccc(C(F)(F)F)c(S(N)(=O)=O)c3-c3nnn[nH]3)cc2)CC(O)C1 (stereo not shown) [Example 728] with its measured pIC50.
8.40
